Data provenance: PubChem BioAssay (NCI)

test system: MOLT-4 leukemia; assay: NCI tumour cell line growth inhibition, 48 h
Provide the reported TGI of each item.
Answers are plain numbers, in µM.

List TGI for every entry below, keeping the order given.
1. C=C1C(=O)O[C@H]2[C@H]1CC/C(COC(=O)/C=C\C(=O)NCc1ccc(Cn3c(=O)sn(CCI)c3=O)cc1)=C\CC[C@@]1(C)O[C@@H]21
2. CCC/C(Cl)=N/OC(NC(=O)OCC)(C(F)(F)F)C(F)(F)F
3. COc1ccc2c(O)c(/C=C3\N=Nc4ncccc43)oc2c1C[C@@H]1CCNC[C@H]1F
4. N#C/C(=C1\OC(=N)C(c2ccccc2)C1=O)c1ccccc1 (stereo not drawn)
5. COc1ccc(-c2oc3cc(OC(C)=O)cc(OC(C)=O)c3c(=O)c2OC)cc1
6. Cn1cc(C2=C(c3cn(CCCN)c4ccccc34)C(=O)NC2=O)c2ccccc21

Result string:
1: 6.32; 2: 71.4; 3: 0.544; 4: 74.6; 5: 68.4; 6: 18.5

###

Provide the reported GI50 of each item.
tested on: HCT-116 colon; assay: NCI tumour cell line growth inhibition, 48 h

Field: example entries. Status: answers known.
COc1cc(-c2nc3ccccc3o2)cc(CN2CCCCC2)c1O: 4.27 µM
C=C1C(=O)O[C@H]2[C@H]1CC/C(COC(=O)/C=C\C(=O)NCc1ccc(Cn3c(=O)sn(CCI)c3=O)cc1)=C\CC[C@@]1(C)O[C@@H]21: 1.93 µM
C[N+](C)(C)c1cc[c]([Sn]([c]2ccc([N+](C)(C)C)cc2)([c]2ccc([N+](C)(C)C)cc2)[c]2ccc([N+](C)(C)C)cc2)cc1: > 100 µM
O=C(NCCOCCOCCOCCNC(=O)c1cc2c(o1)C(=O)c1ccccc1C2=O)NC12CC3CC(CC(C3)C1)C2: 2.4 µM
Cn1c(=O)c(Oc2ccc(F)cc2F)cc2cnc(N[C@@H]3CCOC3)nc21: > 25 µM

List GI50 for every entry below, keeping the order given.
1. CNC(=O)c1c(F)cccc1Nc1nc(Nc2cc3c(cc2OC)CCN3C(=O)CN(C)C)nc2[nH]ccc12
2. COc1ccc(C2C(C#N)=C(N)Oc3c2sc2c(Br)cccc32)cc1 (stereo not drawn)
3. c1ccc(Oc2ccc(Nc3ncc(-c4ccccc4)o3)cc2)cc1

Result string:
1: 1.54 µM; 2: 1.93 µM; 3: > 25 µM

###

system: HCT-116 colon; test: NCI tumour cell line growth inhibition, 48 h
Provide the reported GI50 of each item.

Field: example entries. Status: answers known.
Cc1ccc(Cl)c(NS(=O)(=O)c2ccc(-c3cnc(C4CC4)o3)cc2)c1: 53.7 nM
CCCCOc1ccc(/C=N/Nc2cc(C)nc3ccc(Br)cc23)cc1: 1770 nM
O=C(Nc1cc(Cl)ccc1O)c1cccc(Nc2ccnc(C(F)(F)F)c2)c1: 2220 nM
COc1ccc(S(=O)(=O)Nc2c(/C=C\c3cc(OC)c(OC)c(OC)c3)ccc(OC)c2O)cc1: 32 nM

List GI50 for every entry below, keeping the order given.
1. CCN(CC)CCN1c2nc3ccccc3cc2Sc2cc3ccccc3nc21
2. O=C(/C=C/c1ccccn1)c1ccc(OCc2nnc(-c3ccc(Cl)cc3)o2)cc1
3. CN(C)Cc1ccc(NC(=O)c2cncc(C#Cc3cnc(N)c4ncccc34)c2)cc1F
4. COc1ccc(-c2cn(-c3ccc(OC)c(OC)c3)c(=O)[nH]2)cc1

Result string:
1400 nM
450 nM
1800 nM
> 100000 nM

List GI50 for every entry below, keeping the order given.
1. O=C(Nc1cc(Cl)cc(Cl)c1)c1cccc(NC2=C(Cl)C(=O)N(Cc3ccccc3)C2=O)c1
2. CCC(=O)N1C/C(=C/c2ccc(Br)cc2)C(=O)/C(=C/c2ccc(Br)cc2)C1
3. O=C1NC2(CCCCC2)C(=O)N1CCN(CCCl)CCCl

Result string:
12000 nM
< 41.7 nM
> 25000 nM

Documented GI50 of CS(=O)(=O)c1cccc(Nc2ncc3cc(-c4ccccc4Cl)ccc3n2)c1 : 1010 nM

###

test system: NCI-H226 lung; test: NCI tumour cell line growth inhibition, 48 h
value_kind: TGI (µM)
One number for each entry, in µM.

Cc1ccc(S(=O)(=O)N/N=C2\CCC3(O)CC2(C)CCC2C3CC2(C)C)cc1 (stereo not given): 89.5
COc1ccc(C2C(C#N)=C(N)Oc3c2sc2c(Br)cccc32)cc1 (stereo not given): 24
Cc1ccc(S(=O)(=O)N/N=C2\CCCCCCCCCCC2CN(C)C)cc1 (stereo not given): 35.2

Documented TGI of O=C(c1ccc([N+](=O)[O-])cc1)C(Br)C(Br)c1ccnc2ccccc12 (stereo not given) : 33.6

###

Provide the reported TGI of each item.
system: MOLT-4 leukemia; experiment: NCI tumour cell line growth inhibition, 48 h

Field: example entries. Status: answers known.
CN(C)CCCNC(=O)c1cc(NS(=O)(=O)c2ccc3c(c2)C(=O)c2ccccc2C3=O)cn1C: > 100 µM
COc1cc([N+](=O)[O-])c(S(=O)(=O)O)cc1-n1nc(C(=O)Nc2ccccc2)n[n+]1-c1cc(S(=O)(=O)[O-])c([N+](=O)[O-])cc1OC: > 100 µM
COc1ccc(-c2csc(Cc3nc4c(Br)cc(Br)cc4c(=O)n3-c3ccc(OC)cc3)n2)cc1: > 100 µM
CCCCCCCCCCNCCSS(=O)(=O)O: 4.92 µM

List TGI for every entry below, keeping the order given.
1. CCS(=O)c1c2cc(OC)ccc2nc2ccc(OC)cc12 (stereo not given)
2. C=CCNC1=C2C[C@@H](C)C[C@H](OC)[C@H](O)[C@@H](C)/C=C(\C)[C@H](OC(N)=O)[C@@H](OC)/C=C\C=C(/C)C(=O)NC(=CC1=O)C2=O
3. c1ccc2c(c1)Cc1c(Cc3csc4ccccc34)ccc3cccc-2c13

Result string:
1: > 23.8 µM; 2: 13 µM; 3: > 100 µM

List TGI for every entry below, keeping the order given.
1. Clc1cccc(CNc2c3ccccc3nc3ccccc23)c1
2. CCN(CC)c1ccc(-c2cc(-c3cc(OC)c(OC)c(OC)c3)nc(N3CCC(O)CC3)c2C#N)cc1
3. Cc1cn(Cc2cccc(C3=NCCCN3)c2)c(=O)n(Cc2cccc(C3=NCCCN3)c2)c1=O
4. COC(=O)c1c(-c2cc(OC)c(OC)c(OC)c2)oc2ccccc2c1=O
5. CCn1c(=O)c(C(=O)O)c(Cl)c2cc3c(cc21)OCO3
6. CCOC(=O)c1c(C)nc2c(c1N)/C(=C/c1ccccn1)C(=O)N2Cc1ccccc1

Result string:
10.7 µM
5.17 µM
> 100 µM
> 100 µM
> 100 µM
> 50 µM

List TGI for every entry below, keeping the order given.
1. O=c1[nH][nH]c(=O)n1/N=C/c1ccccc1
2. C=CCOCCC(CC=C)C(=O)CC(=O)OC (stereo not given)
3. Cc1ccc(Cl)c(NS(=O)(=O)c2ccc(-c3cnc(C4CC4)o3)cc2)c1
4. CSc1ccc(NC(=O)C2c3[nH]c4ccccc4c3C3CCC(C(C)(C)C)CC3C2C(=O)O)cc1 (stereo not given)

Result string:
1: > 100 µM; 2: > 100 µM; 3: > 48.3 µM; 4: 31.4 µM

List TGI for every entry below, keeping the order given.
1. COc1ccc(N=Nc2ccc3oc(=O)c(C(=O)Nc4ccccc4C)cc3c2)cc1
2. CC(=O)Nc1cc2cc(NS(=O)(=O)c3ccc(Cl)c(Cl)c3)ccc2oc1=O
3. CCOc1ccc(C(C[N+](=O)[O-])Sc2ccccc2N)cc1 (stereo not given)
4. CC(=O)c1ccccc1NC(=O)C(=O)C(C(=O)c1ccccc1-c1ccccc1)C1OC(=O)c2ccccc21 (stereo not given)
5. CCc1c(CNC2=NCCN2)c(CC)c(CNC2=NCCN2)c(CC)c1CNC1=NCCN1
6. O=C(c1ccc([N+](=O)[O-])cc1)C(Br)C(Br)c1ccnc2ccccc12 (stereo not given)
7. Nc1nc2c(-c3ccc([N+](=O)[O-])cc3)nnn2c2ccccc12
8. COc1ccc2c(c1)CCc1cc(OC)ccc1/[N+]([O-])=[N+]\2[O-]

Result string:
["> 10 µM", "> 100 µM", "16.9 µM", "93 µM", "> 100 µM", "14.7 µM", "> 100 µM", "20.3 µM"]

List TGI for every entry below, keeping the order given.
1. COC1=C2CC(C)CC(OC)C(OC(=O)CN)[C@H](C)/C=C(\C)C(OC(N)=O)C(OC)/C=C\C=C(/C)C(=O)NC(=CC1=O)C2=O (stereo not given in full)
2. COc1ccc(CNc2nc(NCc3ccc(OC)cc3)nc(NC3CCCC3)n2)cc1
3. O=C(Nc1ccccc1)OC1OC(COC(=O)c2ccccc2)C(OC(=O)c2ccccc2)C1OS(=O)(=O)c1ccc([N+](=O)[O-])cc1 (stereo not given)

Result string:
1.57 µM
> 100 µM
> 100 µM

List TGI for every entry below, keeping the order given.
1. CC(=O)/C(Br)=C/c1ccc(Br)o1
2. Cc1ccc(-c2nc(-c3nccc4ccccc34)oc2-c2ccccc2)cc1
3. O=C(Nc1cc(Cl)ccc1O)c1ccccc1Nc1ccnc(C(F)(F)F)c1
4. COC(=O)c1ccc(C)cc1CC1Cc2cccc(C)c2C1=O (stereo not given)
5. O=C1CCC2c3ccccc3NCN12 (stereo not given)
6. COc1cc(-c2nc3ccccc3o2)cc(CN2CCCCC2)c1O
7. COc1ccc(C(=O)c2cc3c(N)c(C(=O)Nc4cccc(Br)c4C)sc3nc2C)cc1
8. COc1ccc2c(c1)C(OC)C1c3c(cc4c(c3-2)OCO4)CCN1C (stereo not given)

Result string:
15.3 µM
> 100 µM
6.94 µM
18.4 µM
> 100 µM
37.4 µM
> 100 µM
> 51.7 µM

List TGI for every entry below, keeping the order given.
1. Cc1c2ccncc2c(C)c2c1sc1ccccc12
2. CCOC(=O)CCC(NC(=O)c1ccc(Oc2nc3c(N)cc(C(F)(F)F)cc3nc2-c2ccccc2)cc1)C(=O)OCC (stereo not given)
3. c1ccc2c(c1)c1c3c(c4c(n32)=NCCN4)CCC1
4. N#CC1(C#N)C=CC(=C2OCC3CCCN23)C=C1 (stereo not given)

Result string:
1: 7.28 µM; 2: > 100 µM; 3: 60.9 µM; 4: > 100 µM
